We begin with a simple list: items and their reported self-cleavage.
B1: Hairpin Ribozyme (parent)
chain: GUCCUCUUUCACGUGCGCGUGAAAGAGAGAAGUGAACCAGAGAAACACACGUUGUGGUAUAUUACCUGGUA

Variants of: B1
Assay: self-cleavage, relative activity (ratio to wild type); higher = more cleavage; co-transcriptional
Please reply with the number alone, leaving off any unit.

Query block: May I ask what self-cleavage has been recorded for A26G U67G ?
Result block: 0.281

Query block: May I ask what self-cleavage has been recorded for G1A C50U ?
Result block: 0.135

Query block: May I ask what self-cleavage has been recorded for U5A G27C ?
Result block: 0.187
